# Target under test: GNAQ/GNA11 (Homo sapiens) (UniProt P50148+P29992)
# Assay notes: Inhibition of Galphaq/11 (unknown origin) expressed in CHO cells coexpressing M1 receptor assessed as reduction in carbachol-induced IP1 accumulation at 10 uM preincubated for 1 hr followed by carbachol stimulation and measured after 1 hr by HTRF assay relative to control
# Assay type: cell-based
# Study conditions: time 2.0 hrs
Measurement label: inhibition
Kindly report the value followed by its unit.

| Compound string | Measurement label | Observed |
| --- | --- | --- |
| CC(C)[C@H](N)C(=O)N1CCn2cc(-c3ccccc3)nc2[C@@H]1CC1CCCCC1 | inhibition | 21.7% |
| CC(C)C(=O)N1CCn2cc(-c3ccccc3)nc2[C@@H]1C(C)C | inhibition | 9.9% |
| N[C@@H](Cc1c[nH]cn1)C(=O)N1CCn2cc(-c3ccccc3)nc2[C@@H]1CC1CCCCC1 | inhibition | 24.7% |
| N[C@@H](CO)C(=O)N1CCn2cc(-c3ccccc3)nc2[C@@H]1CC1CCCCC1 | inhibition | 29.3% |
| NCC(=O)N1CCn2cc(-c3ccccc3)nc2[C@@H]1CC1CCCCC1 | inhibition | 21.9% |
| CC(C)C[C@H](N)C(=O)N1CCn2cc(-c3ccccc3)nc2[C@@H]1CC1CCCCC1 | inhibition | 15.9% |
| CC(C)C(=O)N1CCn2cc(-c3ccccc3)nc2[C@H]1C(C)C | inhibition | 14.4% |
| N=C(N)NCCC[C@H](N)C(=O)N1CCn2cc(-c3ccccc3)nc2[C@@H]1CC1CCCCC1 | inhibition | 6.2% |

Value lookup for inhibition; key = N[C@@H](CC(=O)O)C(=O)N1CCn2cc(-c3ccccc3)nc2[C@@H]1CC1CCCCC1
10.2%

Please answer likewise for NC(=O)C[C@H](N)C(=O)N1CCn2cc(-c3ccccc3)nc2[C@@H]1CC1CCCCC1
19.8%

Repeat for the following molecule: CC[C@@H](C)[C@H](N)C(=O)N1CCn2cc(-c3ccccc3)nc2[C@H]1C(C)C
0.96%

----------
# Assay notes: Clearance in ICR mouse at 10 mg/kg, iv measured upto 24 hrs by LC-MS/MS analysis
# Format: ADME, organism-based
# Study conditions: in vivo
Measurement label: clearance (mL/min/kg)
Give the number; mL/min/kg is assumed, so skip it.

Could you share which clearance value was measured for CC[C@@H](C)[C@H](N)C(=O)N1CCn2cc(-c3ccccc3)nc2[C@@H]1CC1CCCCC1 ?
77.9

----------
# Assay notes: Antiproliferative activity against human MP41 cells assessed as inhibition of cell growth after 72 hrs by CCK8 assay
# Type: functional, cell-based
# Study conditions: MP41, 72 h
Measurement label: IC50 (µM)
Report as a plain number; the unit µM is understood.

Use the examples below as a reference point.
| Compound string | IC50, µM |
| --- | --- |
| N[C@@H](Cc1ccc(O)cc1)C(=O)N1CCn2cc(-c3ccccc3)nc2[C@@H]1CC1CCCCC1 | 22.6 |
| N[C@@H](Cc1ccccc1)C(=O)N1CCn2cc(-c3ccccc3)nc2[C@@H]1CC1CCCCC1 | 25.5 |

Now let's try a different one.
If you can, please state the reported IC50 value of CC(C)C[C@H](N)C(=O)N1CCn2cc(-c3ccccc3)nc2[C@@H]1CC1CCCCC1 .
33.5

----------
# Assay notes: Antiproliferative activity against human MP41 cells assessed as inhibition of cell growth after 72 hrs by CCK8 assay
# Type: functional, cell-based
# Study conditions: MP41, 72 h
pIC50: −log10 of the molar value.
Listing: pIC50 of selected compounds

Here's what some known entries look like.
| Compound string | pIC50 |
| --- | --- |
| CC(C)C[C@@H]1c2nc(-c3ccccc3)cn2CCN1C(=O)[C@@H](N)CS | 4.32 |
| CC(C)C[C@H]1c2nc(-c3ccccc3)cn2CCN1C(=O)[C@@H](N)CS | 4.04 |
| CC(C)C[C@@H]1c2nc(-c3ccccc3)cn2CCN1C(=O)[C@@H](N)CCCCN | < 4.00 |
| CC(C)C[C@@H]1c2nc(-c3ccccc3)cn2CCN1C(=O)C(C)C | < 4.00 |
| CC[C@H](C)C(=O)N1CCn2cc(-c3ccccc3)nc2[C@@H]1C(C)C | < 4.00 |

Can you share its pIC50? I mean this compound: CN[C@@H](CS)C(=O)N1CCn2cc(-c3ccccc3)nc2[C@H]1C(C)C
< 4.00

----------
Listing: pIC50 of selected compounds
# Assay notes: Antiproliferative activity against human MP41 cells assessed as inhibition of cell growth after 72 hrs by CCK8 assay
# Format: functional, cell-based
# Study conditions: MP41, 72 h
Units for pIC50: none; it is -log10 of a concentration expressed in mol/L.

Consider the reported pIC50 for these compounds:
| Compound string | Measurement label | Observed |
| --- | --- | --- |
| C[C@H](N)C(=O)N1CCn2cc(-c3ccccc3)nc2[C@@H]1CC1CCCCC1 | pIC50 | 4.02 |
| N[C@H](CSSC[C@@H](N)C(=O)N1CCn2cc(-c3ccccc3)nc2[C@@H]1CC1CCCCC1)C(=O)N1CCn2cc(-c3ccccc3)nc2[C@@H]1CC1CCCCC1 | pIC50 | 4.98 |
| C[C@H](O)C(=O)N1CCn2cc(-c3ccccc3)nc2[C@@H]1CC1CCCCC1 | pIC50 | 4.25 |
| CC[C@H](C)C(=O)N1CCn2cc(-c3ccccc3)nc2[C@@H]1CC1CCCCC1 | pIC50 | 4.10 |

Continue with the next compound.
What does the data say about its pIC50? Entry: N[C@@H](CS)C(=O)N1CCn2cc(-c3ccccc3)nc2[C@@H]1Cc1ccccc1
4.70

----------
# Assay notes: Volume of distribution at steady state in ICR mouse at 10 mg/kg, iv measured upto 24 hrs by LC-MS/MS analysis
# Assay type: ADME, organism-based
# Study conditions: in vivo, read-out: Vdss
Measurement label: Vd (L/kg)
Express it in L/kg; write the number only.

// query Vd value for entry CC[C@@H](C)[C@H](N)C(=O)N1CCn2cc(-c3ccccc3)nc2[C@@H]1CC1CCCCC1
4.53

----------
# Target under test: GNAQ/GNA11 (Homo sapiens) (UniProt P50148+P29992)
# Assay notes: Inhibition of Galphaq/11 (unknown origin) expressed in CHO cells coexpressing M1 receptor assessed as reduction in carbachol-induced IP1 accumulation at 10 uM preincubated for 1 hr followed by carbachol stimulation and measured after 1 hr by HTRF assay relative to control
# Format: cell-based
# Study conditions: time 2.0 hrs
Measurement label: inhibition (%)
The answer is to be given in %; state only the numeric part.

Field: example entries. Status: answers known.
| Compound string | Target under test | Measurement label | Observed |
| --- | --- | --- | --- |
| C[C@H](N)C(=O)N1CCn2cc(-c3ccccc3)nc2[C@@H]1CC1CCCCC1 | GNAQ/GNA11 (Homo sapiens) (UniProt P50148+P29992) | inhibition | 17.1 |
| CN[C@@H](CS)C(=O)N1CCn2cc(-c3ccccc3)nc2[C@@H]1C(C)C | GNAQ/GNA11 (Homo sapiens) (UniProt P50148+P29992) | inhibition | 11.5 |
| CCN(CC)[C@@H](CS)C(=O)N1CCn2cc(-c3ccccc3)nc2[C@@H]1CC1CCCCC1 | GNAQ/GNA11 (Homo sapiens) (UniProt P50148+P29992) | inhibition | 24.2 |
| N[C@@H](Cc1c[nH]c2ccccc12)C(=O)N1CCn2cc(-c3ccccc3)nc2[C@@H]1CC1CCCCC1 | GNAQ/GNA11 (Homo sapiens) (UniProt P50148+P29992) | inhibition | 7.4 |
| N[C@@H](CS)C(=O)N1CCn2cc(-c3ccccc3)nc2[C@@H]1Cc1ccccc1 | GNAQ/GNA11 (Homo sapiens) (UniProt P50148+P29992) | inhibition | 22.9 |
| CC[C@H](C)C(=O)N1CCn2cc(-c3ccccc3)nc2[C@H]1C(C)C | GNAQ/GNA11 (Homo sapiens) (UniProt P50148+P29992) | inhibition | 11.8 |
| CC(C)[C@H]1c2nc(-c3ccccc3)cn2CCN1C(=O)[C@@H](N)Cc1ccc(O)cc1 | GNAQ/GNA11 (Homo sapiens) (UniProt P50148+P29992) | inhibition | 6.6 |
| CC[C@@H](C)[C@H](N)C(=O)N1CCn2cc(-c3ccccc3)nc2[C@@H]1CC1CCCCC1 | GNAQ/GNA11 (Homo sapiens) (UniProt P50148+P29992) | inhibition | 36.5 |

Now, please, on to the next molecule.
Entry CC(C)[C@@H]1c2nc(-c3ccccc3)cn2CCN1C(=O)[C@@H](N)Cc1ccc(O)cc1 has what inhibition?
18

----------
# Assay notes: Oral bioavailability in ICR mouse at 30 mg/kg measured upto 24 hrs by LC-MS/MS analysis
# Assay type: ADME, organism-based
# Study conditions: in vivo
Measurement label: bioavailability (%)
A number alone suffices; assume %.

Would you kindly share the measured bioavailability for CC[C@@H](C)[C@H](N)C(=O)N1CCn2cc(-c3ccccc3)nc2[C@@H]1CC1CCCCC1 ?
92.6
